Conditions Used: in n-propanol, 288.15 K
Assay Endpoint: solubility (mole fraction)
Answer using only a numeral; do not append any unit.

Challenge: So what's the measured solubility (mole fraction) for this one? `C=C1CCN([C@H](C)[C@](O)(Cn2cncn2)c2ccc(F)cc2F)CC1`
Response given: 0.12

----------
Conditions Used: in n-propanol, 308.15 K
Assay Endpoint: solubility (mole fraction)
Reply briefly: the number, and no unit.

Challenge: Given the compound `C=C1CCN([C@H](C)[C@](O)(Cn2cncn2)c2ccc(F)cc2F)CC1` , what is its reported solubility (mole fraction)?
Response given: 0.222

----------
Conditions Used: in methanol, 288.15 K
Assay Endpoint: solubility (mole fraction)

Challenge: Consider the compound `C=C1CCN([C@H](C)[C@](O)(Cn2cncn2)c2ccc(F)cc2F)CC1` and give its measured solubility (mole fraction).
Response given: 0.176

Cited source for all entries: BigSolDB 2.1
